Tested on: hiPSC-CMs (iCell2 Cardiomyocytes) 2D monolayers
EXPERIMENTAL_DETAILS: Membrane potential (action potential) recordings with FluoVolt voltage-sensitive dye on the CellOPTIQ platform
Assay type: cell-based, human
CONDITION_NOTES: Homo sapiens, Cardiomyocyte, 0.5 h, FM monolayer; 0.1 µM; 30 min; delta over DMSO 0.1%; read-out: APD30 (%DD)
OUTCOME_MEASURE: activity at 0.1 µM (%)
Output spec: scalar in %, unitless text.

Kindly indicate its recorded activity at 0.1 µM. Item: C[C@@H]1CC(=O)NN=C1c1ccc(NN=C(C#N)C#N)cc1
102

Kindly indicate its recorded activity at 0.1 µM. Item: COc1ccc([C@@H]2Sc3ccccc3N(CCN(C)C)C(=O)[C@@H]2OC(C)=O)cc1
76

Kindly indicate its recorded activity at 0.1 µM. Item: C[N+](C)(C)CCOC(N)=O
104

Kindly indicate its recorded activity at 0.1 µM. Item: CC(C)NCC(O)c1ccc(O)c(O)c1 (stereo not shown)
68

====

Tested on: hiPSC-CMs (iCell2 Cardiomyocytes) 2D monolayers
EXPERIMENTAL_DETAILS: Membrane potential (action potential) recordings with FluoVolt voltage-sensitive dye on the CellOPTIQ platform
Assay type: cell-based, human
CONDITION_NOTES: Homo sapiens, Cardiomyocyte, 0.5 h, FM monolayer; 0.3 µM; 30 min; delta over DMSO 0.1%; read-out: CL (%DD)
OUTCOME_MEASURE: activity at 0.3 µM
Units required after the number.

Kindly indicate its recorded activity at 0.3 µM. Item: Cc1[nH]c(=O)c(C#N)cc1-c1ccncc1
96%

Kindly indicate its recorded activity at 0.3 µM. Item: C[N+](C)(C)CCOC(N)=O
109%

Kindly indicate its recorded activity at 0.3 µM. Item: CC(C)NCC(O)c1ccc(O)c(O)c1 (centres unmarked)
49%

Kindly indicate its recorded activity at 0.3 µM. Item: C[C@@H]1CC(=O)NN=C1c1ccc(NN=C(C#N)C#N)cc1
93%

Kindly indicate its recorded activity at 0.3 µM. Item: COc1ccc([C@@H]2Sc3ccccc3N(CCN(C)C)C(=O)[C@@H]2OC(C)=O)cc1
85%

====

System: hiPSC-CMs (iCell2 Cardiomyocytes) 2D monolayers
EXPERIMENTAL_DETAILS: Contractility measurements using video imaging (ContractilityTool / MUSCLEMOTION)
Assay type: cell-based, human
CONDITION_NOTES: Homo sapiens, Cardiomyocyte, 0.5 h, FM monolayer; 3 µM; 30 min; delta over DMSO 0.1%; read-out: CtAmp (%DD)
Would you kindly list activity at 3 µM for each of these molecules?
Output spec: scalar in %, unitless text.

Kindly indicate its recorded activity at 3 µM. Item: C[C@@H]1CC(=O)NN=C1c1ccc(NN=C(C#N)C#N)cc1
122

Kindly indicate its recorded activity at 3 µM. Item: O=C1CCCN1CC#CCN1CCCC1
166

Kindly indicate its recorded activity at 3 µM. Item: Cc1[nH]c(=O)c(C#N)cc1-c1ccncc1
100
